Where these numbers come from: patent US20120039802A1

TARGET_OR_SYSTEM: T1, cMet-Fc fusion protein (extracellular domain of the cMet receptor expressed as an Fc-fusion protein) (human, UniProt P08581 25-932)
T1 construct: extracellular domain; also called soluble cMet-Fc-fusion protein; soluble cMet receptor; not shown: Fc part
T1 sequence (P08581 25-932): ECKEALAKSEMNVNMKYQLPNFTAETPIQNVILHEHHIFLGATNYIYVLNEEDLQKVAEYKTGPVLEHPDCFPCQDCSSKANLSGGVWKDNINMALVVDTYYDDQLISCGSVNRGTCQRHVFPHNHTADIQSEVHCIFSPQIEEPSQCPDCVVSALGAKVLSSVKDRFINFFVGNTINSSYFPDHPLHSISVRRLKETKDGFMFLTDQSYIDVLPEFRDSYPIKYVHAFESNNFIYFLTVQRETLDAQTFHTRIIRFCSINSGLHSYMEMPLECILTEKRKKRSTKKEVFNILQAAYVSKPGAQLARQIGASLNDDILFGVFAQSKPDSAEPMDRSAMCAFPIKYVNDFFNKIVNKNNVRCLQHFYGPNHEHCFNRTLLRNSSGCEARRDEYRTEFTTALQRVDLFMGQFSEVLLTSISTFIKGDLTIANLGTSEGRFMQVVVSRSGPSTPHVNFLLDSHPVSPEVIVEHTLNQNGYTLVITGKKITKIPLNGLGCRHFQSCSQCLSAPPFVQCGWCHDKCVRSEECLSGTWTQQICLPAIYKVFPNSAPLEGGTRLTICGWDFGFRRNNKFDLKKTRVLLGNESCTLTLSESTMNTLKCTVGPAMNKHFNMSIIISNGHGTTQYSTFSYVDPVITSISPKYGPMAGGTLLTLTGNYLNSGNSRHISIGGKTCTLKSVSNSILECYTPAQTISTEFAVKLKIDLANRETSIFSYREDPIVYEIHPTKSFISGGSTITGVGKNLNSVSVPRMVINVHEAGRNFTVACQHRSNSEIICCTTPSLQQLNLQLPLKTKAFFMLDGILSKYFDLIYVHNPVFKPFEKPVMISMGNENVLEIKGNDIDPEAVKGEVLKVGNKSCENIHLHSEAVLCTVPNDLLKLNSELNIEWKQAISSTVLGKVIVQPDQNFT
EXPERIMENT: phage ELISA, cMet-Fc vs TRAIL-Fc
Is Protein ELISA (fold over background) at least 4 fold? Then Yes. If not, No.

Entry AQVGESLDDGWTFFSDKWFDFF [27-D10 peptide-displaying phage (SEQ ID NO: 485)] : is its Protein ELISA (fold over background) no less than 4 fold?
No

Please tell me: is the binder GSFAPCGWPSFAIDCIAEAP [545-C11 peptide-displaying phage (SEQ ID NO: 367)] at or over 4 fold in terms of Protein ELISA (fold over background)?
Yes

Decide: is the reported value of Protein ELISA (fold over background) for GSFFPCWRIDRFGYCHANAP [551-H10 peptide-displaying phage (SEQ ID NO: 370)] equal to or greater than 4 fold?
Yes

Assess whether reported Protein ELISA (fold over background) for AQVGTAEAIMFSDVEDTGVHKF [103-G08 peptide-displaying phage (SEQ ID NO: 459)] sits at 4 fold or higher.
Yes

State whether the measured Protein ELISA (fold over background) reaches 4 fold, counting equality as reaching it, for GDHLTCEFRDDGWKEHCWWSDP [552-F06 peptide-displaying phage (SEQ ID NO: 403)]
Yes

Could you verify whether the entry AQVPDWLSAVVIEKLIEYGMMV [93-C08 peptide-displaying phage (SEQ ID NO: 464)] shows Protein ELISA (fold over background) of no less than 4 fold?
Yes
